Experiment: Bioavailability of compound in rat
Assay type: ADME, organism-based
Conditions: in vivo
Readout type: bioavailability (%)
All answers are understood in %, so give the number only.

-- ask Note down bioavailability recorded for O=C(O)c1cccc(-c2sccc2-c2cc(Cl)ccc2OCc2ccccc2)n1
-- reply 73

----------
Target: UniProtKB P34995
Sequence (P34995 whole entry): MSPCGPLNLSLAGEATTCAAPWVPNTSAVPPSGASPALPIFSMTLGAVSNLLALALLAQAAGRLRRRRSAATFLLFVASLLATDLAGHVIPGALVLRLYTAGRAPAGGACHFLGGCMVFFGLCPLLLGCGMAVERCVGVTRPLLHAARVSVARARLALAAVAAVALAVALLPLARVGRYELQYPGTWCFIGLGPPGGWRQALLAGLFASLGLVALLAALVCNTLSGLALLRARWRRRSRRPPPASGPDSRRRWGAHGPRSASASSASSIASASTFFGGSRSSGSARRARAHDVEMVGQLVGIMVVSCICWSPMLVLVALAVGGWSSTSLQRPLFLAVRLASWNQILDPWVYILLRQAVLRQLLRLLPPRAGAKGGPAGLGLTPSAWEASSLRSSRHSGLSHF
Assay: Binding affinity against Prostaglandin E receptor was determined in human
For each record, write down the corresponding pKi.
As a rule, pKi stands for the negative log10 of the concentration, concentration in M.

-- ask Recall and state the measured pKi for O=S(=O)(Cc1ccccc1)Nc1cccc(-c2sccc2-c2cc(Cl)ccc2OCc2ccccc2)c1 .
-- reply 7.28

-- ask Provide one value: measured pKi of N#CC(O)c1cncc(-c2sccc2-c2cc(Cl)ccc2OCc2ccccc2)c1 (centres undefined)
-- reply 7.64

-- ask Answer with the recorded pKi for the molecule listed here: CC(NC(=O)c1cccc(-c2sccc2-c2cc(Cl)ccc2OCc2ccccc2)c1)c1cccnc1 (centres undefined)
-- reply 8.05

-- ask Supply measured pKi of NS(=O)(=O)c1cccc(-c2ccsc2-c2cc(Cl)ccc2OCc2ccccc2)c1 in your reply.
-- reply 8.10
